Some compounds, each annotated with its measured EC50.
Measured target: human cannabinoid receptor type 2 (Homo sapiens, UniProt P34972)
Construct: expressed in transfected cells; membrane preparation
Sequence (P34972 whole entry): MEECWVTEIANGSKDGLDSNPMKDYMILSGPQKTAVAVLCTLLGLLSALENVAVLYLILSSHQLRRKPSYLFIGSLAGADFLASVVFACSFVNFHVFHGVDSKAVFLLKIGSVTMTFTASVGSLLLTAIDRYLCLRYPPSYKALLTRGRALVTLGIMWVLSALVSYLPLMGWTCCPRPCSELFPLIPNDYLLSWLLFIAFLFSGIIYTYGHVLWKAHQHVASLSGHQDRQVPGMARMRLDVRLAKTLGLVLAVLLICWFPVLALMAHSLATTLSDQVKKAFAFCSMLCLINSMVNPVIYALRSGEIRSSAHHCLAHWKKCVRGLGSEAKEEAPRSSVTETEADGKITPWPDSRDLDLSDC
Test protocol: Human CB2 Radioligand Binding Assay
Reported conditions: competition with [3H] CP-55,940; membranes from stably transfected CHO CB2 cells; read-out: CB2 Ligand Binding Asssay EC50
Experimental: 1. Human CB2 Radioligand Binding Assay This receptor binding filtration assay measures the receptor-ligand interactions of compounds by measuring ability to compete with a radiolabeled control ligand. […] Tritiated CP-55,940 (Perkin Elmer) was used at the Kd determined from prior saturation binding experiments conducted on each lot of membranes. […] Betaplate Scint Scintillation cocktail (25 ul, Perkin Elmer) was applied and plates were read using Microbeta Trilux (Wallac). […]

Examples from the recorded data:
{"Compound": "CCCOC(=O)N1CCN(c2nc(-c3ccccc3Cl)nc3cccc(Cl)c23)CC1 [Example 231]", "EC50": "> 1000 nM"}
{"Compound": "Clc1ccccc1-c1nc(NCC2CCCO2)c2ccccc2n1 (stereo not drawn) [Example 188]", "EC50": "> 1000 nM"}
{"Compound": "CS(=O)(=O)N1CCN(c2nc(-c3ccccc3Cl)nc3ccccc23)CC1 [Example 86]", "EC50": "< 1000 nM"}
{"Compound": "CC(C)(C)c1ccc2nc(-c3ccccc3Cl)nc(N3CCCC3)c2c1 [Example 171]", "EC50": "< 1000 nM"}
{"Compound": "CCN1CCN(c2nc(-c3ccccc3Cl)nc3ccccc23)CC1 [Example 105]", "EC50": "< 1000 nM"}

Challenge: Tell us which EC50 value is on record for CCOC(=O)N1CCN(c2nc(-c3ccc(C(C)(C)C)cc3)nc3ccc(OC)cc23)CC1 [Example 250]
Response given: < 1000 nM

Challenge: Tell us which EC50 value is on record for CCOC(=O)N1CCN(c2nc(-c3ccccc3Cl)nc3cc(Cl)ccc23)CC1 [Example 234]
Response given: > 1000 nM

Challenge: Tell us which EC50 value is on record for COc1ccc2nc(-c3ccccc3Cl)nc(N3CCCCC3)c2c1 [Example 178]
Response given: < 1000 nM

Challenge: Tell us which EC50 value is on record for CCOC(=O)N1CCN(c2nc(-c3ccccc3F)nc3ccc(Cl)cc23)CC1 [Example 272]
Response given: > 1000 nM

* * *

Measured target: human cannabinoid receptor type 2 (Homo sapiens)
Construct: expressed in transfected cells; membrane preparation
Test protocol: Human CB2 Radioligand Binding Assay
Reported conditions: competition with [3H] CP-55,940; membranes from stably transfected CHO CB2 cells; read-out: CB2 Ligand Binding Asssay EC50
pEC50: −log10 of the molar value.
Some compounds, each annotated with its measured pEC50.

Examples from the recorded data:
{"Compound": "COc1ccc2nc(-c3ccccc3Cl)nc(N3CCCC3)c2c1", "pEC50": "> 6.00"}
{"Compound": "CN1CCN(c2nc(C3CCCCC3)nc3ccccc23)CC1", "pEC50": "> 6.00"}

Challenge: Tell us which pEC50 value is on record for CCCOC(=O)N1CCN(c2nc(-c3ccccc3Cl)nc3ccccc23)CC1
Response given: < 6.00

Challenge: Tell us which pEC50 value is on record for Clc1ccc(-c2nc(N3CCCCC3)c3ccccc3n2)cc1
Response given: < 6.00

* * *

Measured target: human cannabinoid receptor type 2 (Homo sapiens, UniProt P34972)
Construct: expressed in transfected cells; membrane preparation
Test protocol: Human CB2 Radioligand Binding Assay
Reported conditions: competition with [3H] CP-55,940; membranes from stably transfected CHO CB2 cells; read-out: CB2 Ligand Binding Asssay EC50
Measured endpoint: EC50

Examples from the recorded data:
{"Compound": "O=S(=O)(NCc1nc(Nc2ccccc2)c2ccccc2n1)c1cccc2ccccc12 [Example 302]", "EC50": "> 1 µM"}
{"Compound": "Fc1ccc(-c2nc(N3CCCCC3)c3ccccc3n2)cc1F [Example 15]", "EC50": "< 1 µM"}
{"Compound": "CC(C)(C)c1ccc(Nc2nc(-c3ccc(OC(F)(F)F)cc3)nc3ccccc23)cc1 [Example 143]", "EC50": "> 1 µM"}
{"Compound": "CCCS(=O)(=O)N1CCN(c2nc(-c3ccccc3Cl)nc3ccccc23)CC1 [Example 84]", "EC50": "> 1 µM"}
{"Compound": "CN(c1ccc(C(C)(C)C)cc1)c1nc(-c2ccc(OC(F)(F)F)cc2)nc2ccccc12 [Example 144]", "EC50": "> 1 µM"}
{"Compound": "c1ccc(-c2nc(NCC3CC3)c3ccccc3n2)cc1 [Example 50]", "EC50": "> 1 µM"}

Challenge: Tell us which EC50 value is on record for Fc1ccc(-c2nc(N3CCCC3)c3ccccc3n2)cc1F [Example 13]
Response given: < 1 µM

Challenge: Tell us which EC50 value is on record for Fc1ccccc1-c1nc(N2CCCCC2)c2ccccc2n1 [Example 150]
Response given: < 1 µM

Challenge: Tell us which EC50 value is on record for FC(F)(F)Oc1ccc2nc(-c3ccccc3Cl)nc(N3CCSCC3)c2c1 [Example 204]
Response given: < 1 µM

* * *

Measured target: human cannabinoid receptor type 2 (Homo sapiens)
Construct: expressed in transfected cells; membrane preparation
Test protocol: Human CB2 Radioligand Binding Assay
Reported conditions: competition with [3H] CP-55,940; membranes from stably transfected CHO CB2 cells; read-out: CB2 Ligand Binding Asssay EC50
Measured endpoint: EC50

Examples from the recorded data:
{"Input smiles": "COc1ccc(CNC(=O)c2ccc3nc(-c4ccccc4Cl)nc(N4CCC(C)CC4)c3c2)cc1", "EC50": "< 1 µM"}
{"Input smiles": "CCOC(=O)N1CCN(c2nc(-c3ccccc3F)nc3cccc(Cl)c23)CC1", "EC50": "< 1 µM"}

Challenge: Tell us which EC50 value is on record for FC(F)(F)Oc1ccc2nc(-c3ccccc3Cl)nc(N3CCCCC3)c2c1
Response given: > 1 µM

Challenge: Tell us which EC50 value is on record for CN1CCN(c2nc(-c3ccc(C(F)(F)F)cc3)nc3ccccc23)CC1
Response given: < 1 µM

* * *

Some compounds, each annotated with its measured EC50.
Measured target: human cannabinoid receptor type 2 (Homo sapiens, UniProt P34972)
Construct: expressed in transfected cells; membrane preparation
Test protocol: Human CB2 Radioligand Binding Assay
Reported conditions: competition with [3H] CP-55,940; membranes from stably transfected CHO CB2 cells; read-out: CB2 Ligand Binding Asssay EC50

{"Input smiles": "Clc1ccc2c(N3CCCCC3)nc(C3CCCCC3)nc2c1", "Measured endpoint": "EC50", "Result value": "< 1000 nM"}
{"Input smiles": "FC(F)(F)c1ccc(-c2nc(N3CCCCC3)c3ccccc3n2)cc1", "Measured endpoint": "EC50", "Result value": "< 1000 nM"}
{"Input smiles": "CC(C)(C)c1ccc2c(N3CCCC3)nc(Nc3ccccc3)nc2c1", "Measured endpoint": "EC50", "Result value": "< 1000 nM"}

Challenge: Tell us which EC50 value is on record for CN1CCN(c2nc(-c3ccc(Cl)cc3)nc3ccc(OC(F)(F)F)cc23)CC1
Response given: < 1000 nM

Challenge: Tell us which EC50 value is on record for COC(=O)c1ccc2nc(-c3ccccc3Cl)nc(Nc3cc(OC)cc(OC)c3)c2c1
Response given: > 1000 nM

Challenge: Tell us which EC50 value is on record for FC(F)(F)Oc1ccc(-c2nc(N3CCCCC3)c3ccccc3n2)cc1
Response given: < 1000 nM

Challenge: Tell us which EC50 value is on record for c1ccc(-c2nc(N3CCCCC3)c3ccccc3n2)cc1
Response given: > 1000 nM

Challenge: Tell us which EC50 value is on record for O=S(=O)(NCc1nc(N2CCCC2)c2ccccc2n1)c1cccc2ccccc12
Response given: < 1000 nM

* * *

Measured target: human cannabinoid receptor type 2 (Homo sapiens)
Construct: expressed in transfected cells; membrane preparation
Test protocol: Human CB2 Radioligand Binding Assay
Reported conditions: competition with [3H] CP-55,940; membranes from stably transfected CHO CB2 cells; read-out: CB2 Ligand Binding Asssay EC50
pEC50: −log10 of the molar value.
Measured endpoint: pEC50

{"Input smiles": "CC(C)c1nc(N2CCN(C)CC2)c2ccccc2n1", "Result value": "< 6.00"}
{"Input smiles": "CCN(CC)C(=O)c1ccc2nc(-c3ccccc3Cl)nc(N3CCN(C(C)=O)CC3)c2c1", "Result value": "> 6.00"}
{"Input smiles": "Clc1ccc(-c2nc(NCc3ccccc3)c3ccccc3n2)cc1", "Result value": "< 6.00"}
{"Input smiles": "O=S(=O)(NCc1nc(N2CCCC2)c2ccccc2n1)c1ccccc1", "Result value": "> 6.00"}
{"Input smiles": "CC(C)(C)c1ccc(-c2nc(Nc3ccc(F)cc3F)c3ccccc3n2)cc1", "Result value": "< 6.00"}
{"Input smiles": "O=S(=O)(NCc1nc(N2CCOCC2)c2ccccc2n1)c1cccc2ccccc12", "Result value": "> 6.00"}
{"Input smiles": "CC(=O)N1CCN(c2nc(-c3ccccc3Cl)nc3cccc(Cl)c23)CC1", "Result value": "> 6.00"}
{"Input smiles": "Fc1ccccc1-c1nc(N2CCCC2)c2ccccc2n1", "Result value": "> 6.00"}

Challenge: Tell us which pEC50 value is on record for Clc1ccccc1Nc1nc(-c2ccccc2)nc2ccccc12
Response given: < 6.00

Challenge: Tell us which pEC50 value is on record for Clc1ccccc1-c1nc(NCCCn2ccnc2)c2ccccc2n1
Response given: < 6.00

Challenge: Tell us which pEC50 value is on record for CCOC(=O)N1CCN(c2nc(Cc3ccccc3C)nc3ccccc23)CC1
Response given: < 6.00

Challenge: Tell us which pEC50 value is on record for Clc1ccc(-c2nc(N3CCc4ccccc4C3)c3ccccc3n2)cc1
Response given: < 6.00

Challenge: Tell us which pEC50 value is on record for Cc1ccccc1-c1nc(N2CCCC2)c2ccccc2n1
Response given: < 6.00

Challenge: Tell us which pEC50 value is on record for CC(C)(C)c1ccc(-c2nc(Nc3ccccc3Cl)c3ccccc3n2)cc1
Response given: < 6.00

Challenge: Tell us which pEC50 value is on record for CCCS(=O)(=O)N1CCN(c2nc(-c3ccccc3Cl)nc3cccc(Cl)c23)CC1
Response given: < 6.00
